system: VERPE; experiment: Pre-emergence action against VERPE; format: in vivo, Veronica persica; conditions: Dosage 320 g/ha, pre-emergence
Overview of reported Pre-emergence action against VERPE across a group of compounds:

Examples from the recorded data:
CCCn1nnnc1NC(=O)c1ccc(C(F)F)c(C(=O)C2CC2)c1SC :: 100%
CCCC(=O)c1c(C(F)(F)F)ccc(C(=O)Nc2nnnn2CC)c1C :: 100%
CCCn1nnnc1NC(=O)c1ccc(C(F)(F)F)c(C(=O)CC)c1C :: 100%
CCn1nnnc1NC(=O)c1ccc(C(F)F)c(C(C)=O)c1SC :: 100%
CCn1nnnc1NC(=O)c1ccc(C(F)F)c(C(C)=O)c1Cl :: 100%
CCn1nnnc1NC(=O)c1ccc(C(F)(F)F)c(C(=O)C2CC2)c1C1CC1 :: 100%
CSc1c(C(=O)Nc2nnnn2C)ccc(C(F)(F)F)c1C(=O)C1CCCCC1 :: 90%
CCCn1nnnc1NC(=O)c1ccc(C(F)F)c(C(C)=O)c1Cl :: 100%

q: Entry under review: CCn1nnnc1NC(=O)c1ccc(C(F)(F)F)c(C(C)=O)c1C . Reported Pre-emergence action against VERPE?
a: 100%

q: Cool, now Cn1nnnc1NC(=O)c1ccc(C(F)(F)F)c(C(=O)C2CCCC2)c1Cl
a: 90%

q: And for CCn1nnnc1NC(=O)c1ccc(SC)c(C(=O)C2CC2)c1Cl ?
a: 100%

q: Please give the result for CCCn1nnnc1NC(=O)c1ccc(C(F)(F)F)c(C(=O)C2CC2)c1C too.
a: 90%

q: CCn1nnnc1NC(=O)c1ccc(C(F)(F)F)c(C(=O)C2CC2)c1Cl , same question.
a: 100%

q: Can you handle CCn1nnnc1NC(=O)c1ccc(Cl)c(C(=O)C2CC2)c1Cl next?
a: 100%

q: Then this compound: CSc1c(C(=O)Nc2nnnn2C)ccc(C(F)(F)F)c1C(=O)C1CCCC1
a: 90%

q: What do you get for CCCn1nnnc1NC(=O)c1ccc(C(F)(F)F)c(C(=O)C2CC2)c1Br ?
a: 100%

q: What do we get for CCCn1nnnc1NC(=O)c1ccc(C(F)(F)F)c(C(=O)COC)c1Cl ?
a: 100%

q: Try the compound CCn1nnnc1NC(=O)c1ccc(C(F)(F)F)c(C(=O)C2CC2C)c1Cl (stereo not drawn)
a: 100%
